Test system: Mus musculus
ASSAY SUMMARY: Area under the antinociceptive effect time curve was determined after administration of 8 mg/kg in mice
Type: functional
Recorded AUEC values for a group of compounds are listed next.

Below, 5 compounds whose answers are already recorded.
Ask: Bench note: what AUEC did "C=CCN1CC[C@]23c4c5ccc(O)c4O[C@H]2[C@@H](O[C@@H]2O[C@@H](C(=O)O)[C@@H](O)[C@H](O)[C@@H]2O)C=C[C@H]3[C@H]1C5" show?
Result: 492 A% min-1

Ask: Query: AUEC; subject: "CN1CC[C@]23c4c5ccc(O)c4O[C@H]2[C@@H](O[C@@H]2O[C@H](C(=O)O)C[C@H](O)[C@@H]2O)C=C[C@H]3[C@H]1C5"
Result: 380 A% min-1

Ask: Which AUEC reading was recorded for the compound "O=C(O)[C@@H]1O[C@@H](O[C@H]2C=C[C@H]3[C@H]4Cc5ccc(O)c6c5[C@@]3(CCN4)[C@H]2O6)[C@@H](O)[C@@H](O)[C@@H]1O" ?
Result: 2487 A% min-1

Ask: So what's the measured AUEC for this one? CN1CCC23c4c5ccc(O)c4O[C@H]2[C@@H](OC2OC(CO)[C@H](O)C(O)C2O)C=C[C@H]3[C@H]1C5 (stereo partly specified)
Result: 2397 A% min-1

Ask: AUEC lookup needed for "O=C(O)CN1CC[C@]23c4c5ccc(O)c4O[C@H]2[C@@H](O[C@@H]2O[C@@H](C(=O)O)[C@@H](O)[C@H](O)[C@@H]2O)C=C[C@H]3[C@H]1C5" , thanks.
Result: 322 A% min-1

With those in mind, consider the next compound.
Ask: Name the reported AUEC value associated with the compound CN1CCC23c4c5ccc(O)c4O[C@H]2[C@@H](OC2CCCC(C(=O)O)O2)C=C[C@H]3[C@H]1C5 (stereo partly specified)
Result: 478 A% min-1
